PROTOCOL_DETAILS: compound fluorescence in toxin protease inhibitor counterscreen, primary screen, artefact control for toxin protease inhibitor project, biochemical, multiplex microsphere, HTS (AID 624483)
MEASUREMENT_CONDITIONS: compound autofluorescence counterscreen, microsphere flow cytometry; hits give high values
Among all 360,000 compounds or so, about 11,000 (3.1%) were called active. Roughly 2% stayed inconclusive and do not appear here. Many of the other results were omitted from the sample, so actives are more common in it than they were.
OUTCOME_MEASURE: fluorescence intensity
Please give only the number in your answer, with no unit.

Consider the worked cases shown below.
In [3]: df
Out[3]:
                                   molecule  reported_measurement
0  FC(F)(F)Oc1ccccc1C(c1nnnn1C1CCCCC1)N1CCN(C/C=C/c2ccccc2)CC1 (configuration not stated)                  4590
1  NC(=O)C1CCN(C(=O)COc2ccc3c4c(c(=O)oc3c2)CCC4)CC1                  5000
2  COc1cc(N2CCCC2)c(OC)cc1/C=C(/C#N)c1cccc(Br)c1                 20000
3  Cc1ccc(S(=O)(=O)NCCC(c2ccccc2)c2ccccc2)cc1C(=O)O                  3790

Endpoint output: fluorescence intensity of CC(=O)Nc1cc(-c2ccccc2N(C)C)cn2c(-c3ccc(F)c(Cl)c3)cnc12 . Value?
3420

Endpoint output: fluorescence intensity of CC1(C(=O)NS(=O)(=O)c2ccccc2)CCN1C(=O)Cc1ccc(-c2ccccc2)cc1 (configuration not stated) . Value?
3470

Endpoint output: fluorescence intensity of CN(Cc1ccccc1)c1nc2c(c(=O)[nH]c(=O)n2C)n1CCSc1nc2ccccc2[nH]1 . Value?
3450

###

PROTOCOL_DETAILS: compound fluorescence in toxin protease inhibitor counterscreen, primary screen, artefact control for toxin protease inhibitor project, biochemical, multiplex microsphere, HTS (AID 624483)
MEASUREMENT_CONDITIONS: compound autofluorescence counterscreen, microsphere flow cytometry; hits give high values
Out of some 360,000 compounds screened, about 11,000 (3.1%) were called active. Roughly 2% stayed inconclusive and do not appear here. The sample as a whole holds a higher share of actives than the screen did.
OUTCOME_MEASURE: fluorescence intensity
Please give only the number in your answer, with no unit.

                                   molecule  reported_measurement
0  CN(C(=O)c1c(Cl)cnn1C)C12CC3CC(CC(C3)C1)C2                  2490
1   Nc1ccccc1SCc1cc([N+](=O)[O-])cc2c1OCOC2                 22000
2  CCn1c(SCC(=O)NNC(=O)c2ccc(OC)cc2)nnc1C(C)C                  6340
3                  Oc1ccc2ccc3cccc[n+]3c2c1                  4220
4        Cn1nnnc1SCC(=O)N1CCN(Cc2ccccc2)CC1                 19800

Endpoint output: fluorescence intensity of CCN(CC(=O)Nc1ccc2c(c1)OCCO2)Cc1cc(=O)oc2cc(C)c(C)cc12 . Value?
10100

Endpoint output: fluorescence intensity of CC(O)C(NS(=O)(=O)c1ccc(Cl)cc1)C(=O)OCc1cc([N+](=O)[O-])cc2c1OCOC2 (configuration not stated) . Value?
3270

Endpoint output: fluorescence intensity of CC(C)C1CC2=C(C(=O)OC(C)(C)O2)C(c2ccc(F)cc2)O1 (configuration not stated) . Value?
5880

Endpoint output: fluorescence intensity of CCOc1ccc(NC(=O)c2ccccc2NS(C)(=O)=O)cc1 . Value?
9540

###

PROTOCOL_DETAILS: compound fluorescence in toxin protease inhibitor counterscreen, primary screen, artefact control for toxin protease inhibitor project, biochemical, multiplex microsphere, HTS (AID 624483)
MEASUREMENT_CONDITIONS: compound autofluorescence counterscreen, microsphere flow cytometry
In all, about 360,000 compounds went through this assay and about 11,000 (3.1%) were called active. About 2% were inconclusive and are not listed. No stated cut-off is given here; in the data, active means fluorescence intensity above about 16000; inconclusive means no clear call, values can overlap the other calls; inactive means below that. The list comes from a sample in which actives are over-represented; it also holds close analogues and randomly drawn compounds.
One label from this list, please: 1 = active, -1 = inactive

Here's what some known entries look like.
                                   molecule  class_name
0  CC(=O)c1ccc(NC(=O)CSc2nc3ccccc3c(=O)n2CCCN2CCOCC2)cc1          -1
1  O=C1NC[C@H](CCCCN2C[C@H](Cc3ccc(O)cc3)N(CC3CCCCC3)C(=O)C2=O)N(CCc2ccccc2)C1=O          -1
2       O=C(O)c1ccc(COc2c(F)c(F)cc(F)c2F)o1          -1

For CC(C)(C)c1ccc(CN2C(=O)c3ccccc3S2(=O)=O)cc1 , what call appears in the results of this test?
-1

For CCN(CC)C(=O)C1=C(C)N(Cc2ccc(C(C)(C)C)cc2)C(=O)C(CC(=O)NCc2cccc3ccccc23)C1 (stereo unspecified) , what call appears in the results of this test?
-1

For Cc1ccc2nc(NCCCNC(=O)c3cnccn3)c(C#N)cc2c1 , what call appears in the results of this test?
1

For CC(C)C[C@@H]1Cc2[nH][nH]c(=O)c2[C@H](CCc2ccccc2)O1 , what call appears in the results of this test?
-1

For CCCc1c(-c2ccccc2F)ncn1Cc1ccccc1OC , what call appears in the results of this test?
-1

For Cc1nc(-c2ccccc2)cn2c1nc1ccccc12 , what call appears in the results of this test?
-1

For N#Cc1c(N)nc2c(c1N)CC(C(F)(F)F)O2 (stereo unspecified) , what call appears in the results of this test?
-1

For CC(=O)c1ccc(-n2nnnc2SCC(=O)N2CCN(C(=O)c3ccco3)CC2)cc1 , what call appears in the results of this test?
-1

###

PROTOCOL_DETAILS: compound fluorescence in toxin protease inhibitor counterscreen, primary screen, artefact control for toxin protease inhibitor project, biochemical, multiplex microsphere, HTS (AID 624483)
MEASUREMENT_CONDITIONS: compound autofluorescence counterscreen, microsphere flow cytometry; hits give high values
Among all 360,000 compounds or so, about 11,000 (3.1%) were called active. Roughly 2% stayed inconclusive and do not appear here. The full list was thinned out, with actives kept by preference.
Measured fluorescence intensity by item
Please give only the number in your answer, with no unit.

>>> print(df.to_string())
                                   molecule  reported_measurement
0  CCCNC(=O)C1(C)CCN(Cc2ccc(Cl)c(Cl)c2)C1 (stereo not drawn)                  4070

Next up:
Endpoint output: fluorescence intensity of CCOc1ccc(NC(=O)Nc2ccc(N(C)C(C)=O)cc2)cc1 . Value?
4350

###

PROTOCOL_DETAILS: compound fluorescence in toxin protease inhibitor counterscreen, primary screen, artefact control for toxin protease inhibitor project, biochemical, multiplex microsphere, HTS (AID 624483)
MEASUREMENT_CONDITIONS: compound autofluorescence counterscreen, microsphere flow cytometry; hits give high values
About 11,000 (3.1%) of roughly 360,000 compounds were called active. Not shown: some 2% with an inconclusive outcome. Only a selection was taken, and actives are over-represented in it overall.
Measured fluorescence intensity by item
Please give only the number in your answer, with no unit.

>>> df
                                   compound         outcome_measure  reported_measurement
0  CCOC1=C2[C@@H](CN(S(=O)(=O)c3ccc(C)cc3)[C@H]2c2ccccc2F)[C@H]2C(=O)N(Cc3ccccc3)C(=O)[C@H]2C1  fluorescence intensity                  4840
1            O=S(=O)(NCc1ccccn1)c1ccc(Br)s1  fluorescence intensity                 18000
2  CCOC(=O)c1cc2c(ccn2C)n1CC(=O)N1CCC(C)CC1  fluorescence intensity                  4040
3            O=S(=O)(NCc1ccccn1)c1ccc(F)cc1  fluorescence intensity                 11500
4   CC1CCN(c2ccc([N+](=O)[O-])c(SCCO)c2)CC1  fluorescence intensity                  6270

Endpoint output: fluorescence intensity of O=C(CSc1ccc(-c2ccccc2)nn1)NCC1CCCO1 (stereo not drawn) . Value?
3400

###

PROTOCOL_DETAILS: compound fluorescence in toxin protease inhibitor counterscreen, primary screen, artefact control for toxin protease inhibitor project, biochemical, multiplex microsphere, HTS (AID 624483)
MEASUREMENT_CONDITIONS: compound autofluorescence counterscreen, microsphere flow cytometry; hits give high values
Among all 360,000 compounds or so, about 11,000 (3.1%) were called active. About 2% were inconclusive and are not listed. This excerpt belongs to a sample that is enriched for actives.
Returns the class for an entry based on its fluorescence intensity. Class ranges: low group = under 4000, middle group = from 4000 up to 6000, high group = 6000 and over

Here's what some known entries look like.
>>> print(df.to_string())
                                   compound    class_name
0  CO/N=C/c1ccc(N2CCN(C(=O)c3cccc(Cl)c3)CC2)c([N+](=O)[O-])c1    high group
1  CCNC(=O)N1CCN(S(=O)(=O)c2ccc3c(c2)OCCCO3)CC1  middle group

Category of O=C(/C=C/c1ccc(Cl)cc1)N1CCN(c2ccccc2[N+](=O)[O-])CC1 , please.
low group

Category of NC(=O)c1sc2nc3c(c(-c4ccccc4)c2c1N)CCC3 , please.
high group

Entry source: PubChem BioAssay AID624483
